Some compounds, each annotated with its measured viability, T/C.
# Tested on: 485176-168-R4-J1-PDC complex spheroid growth
# assayComment: Anticancer human tumor 485176-168-R4-J1-PDC patient-derived pancreatic adenocarcinoma cell line growth inhibition [RAS]
# condition: second compound 0.0316 µM; first compound 0.01 µM; hits give low values
The answer is to be given in %; state only the numeric part.

Worked examples follow.
| compound | recordedMeasurement |
| --- | --- |
| O=C(c1ccc(F)c(F)c1Nc1ccc(I)cc1F)N1CC(O)([C@@H]2CCCCN2)C1 + C=CC(=O)N1CCN(c2nc(OCC3CCCN3C)nc3c(F)c(-c4nc(N)cc(C)c4C(F)(F)F)c(Cl)cc23)C(C)C1 | 90.7 |
| O=C(c1ccc(F)c(F)c1Nc1ccc(I)cc1F)N1CC(O)([C@@H]2CCCCN2)C1 + C#Cc1c(F)ccc2cc(O)cc(-c3ncc4c(N5CC6CCC(C5)N6)nc(OCC56CCCN5CC(F)C6)nc4c3F)c12 | 79.3 |

We now examine a further compound.
Query: Item CC(C)n1nc(-c2ccc3oc(N)nc3c2)c2c(N)ncnc21 + C=CC(=O)N1CCN(c2nc(OCC3CCCN3C)nc3c(F)c(-c4nc(N)cc(C)c4C(F)(F)F)c(Cl)cc23)C(C)C1 with 485176-168-R4-J1-PDC complex spheroid growth - viability, T/C?
Response: 54.7

----------
# System: 485176-168-R4-J1-PDC complex spheroid growth
# assayComment: Anticancer human tumor 485176-168-R4-J1-PDC cell line growth inhibition [RAS];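 also: spheroids exposed to compounds for seven days before readout; luminescence viability expressed relative to DMSO vehicle wells set as 100%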
# condition: second compound 3.16 µM; first compound 0.0316 µM; hits give low values
metric: viability, T/C (%)
The answer is to be given in %; state only the numeric part.

Worked examples follow.
| molecule | recordedMeasurement |
| --- | --- |
| NC1c2ccccc2OC12CCN(c1cnc3c(N4CCCc5ncccc54)n[nH]c3n1)CC2 (stereo not given) + C#Cc1c(F)ccc2cc(O)cc(-c3ncc4c(N5CC6CCC(C5)N6)nc(OCC56CCCN5CC(F)C6)nc4c3F)c12 | 79.8 |
| O=C(c1ccc(F)c(F)c1Nc1ccc(I)cc1F)N1CC(O)([C@@H]2CCCCN2)C1 + C#Cc1c(F)ccc2cc(O)cc(-c3ncc4c(N5CC6CCC(C5)N6)nc(OCC56CCCN5CC(F)C6)nc4c3F)c12 | 64.4 |

Query: I would be grateful if you could share the reported viability, T/C for C=CC(=O)N1CCN(c2nc(OCC3CCCN3C)nc3c(F)c(-c4nc(N)cc(C)c4C(F)(F)F)c(Cl)cc23)C(C)C1 (stereo not given) + C#Cc1c(F)ccc2cc(O)cc(-c3ncc4c(N5CC6CCC(C5)N6)nc(OCC56CCCN5CC(F)C6)nc4c3F)c12 .
Response: 85.3

Query: I would be grateful if you could share the reported viability, T/C for Nc1ccn(C2OC(CO)C(O)C2(F)F)c(=O)n1 (stereo not given) + C#Cc1c(F)ccc2cc(O)cc(-c3ncc4c(N5CC6CCC(C5)N6)nc(OCC56CCCN5CC(F)C6)nc4c3F)c12 .
Response: 16.5

Query: I would be grateful if you could share the reported viability, T/C for CCC(CC)c1cc(NC2CCC(N)C2)n2nccc2n1 (stereo not given) + C#Cc1c(F)ccc2cc(O)cc(-c3ncc4c(N5CC6CCC(C5)N6)nc(OCC56CCCN5CC(F)C6)nc4c3F)c12 .
Response: 103

Query: I would be grateful if you could share the reported viability, T/C for CC(C)n1nc(-c2ccc3oc(N)nc3c2)c2c(N)ncnc21 + C#Cc1c(F)ccc2cc(O)cc(-c3ncc4c(N5CC6CCC(C5)N6)nc(OCC56CCCN5CC(F)C6)nc4c3F)c12 .
Response: 36.6

Query: I would be grateful if you could share the reported viability, T/C for CC(=O)OC12COC1CC(O)C1(C)C(=O)C(O)C3=C(C)C(OC(=O)C(O)C(NC(=O)OC(C)(C)C)c4ccccc4)CC(O)(C(OC(=O)c4ccccc4)C21)C3(C)C (stereo not given) + C#Cc1c(F)ccc2cc(O)cc(-c3ncc4c(N5CC6CCC(C5)N6)nc(OCC56CCCN5CC(F)C6)nc4c3F)c12 .
Response: 20.6

Query: I would be grateful if you could share the reported viability, T/C for C=CC(=O)Nc1cc(Nc2nccc(-c3cn(C)c4ccccc34)n2)c(OC)cc1N(C)CCN(C)C + C#Cc1c(F)ccc2cc(O)cc(-c3ncc4c(N5CC6CCC(C5)N6)nc(OCC56CCCN5CC(F)C6)nc4c3F)c12 .
Response: 96.7

Query: I would be grateful if you could share the reported viability, T/C for CC(C)NCC(C(=O)N1CCN(c2ncnc3c2C(C)CC3O)CC1)c1ccc(Cl)cc1 (stereo not given) + C#Cc1c(F)ccc2cc(O)cc(-c3ncc4c(N5CC6CCC(C5)N6)nc(OCC56CCCN5CC(F)C6)nc4c3F)c12 .
Response: 99.3

Query: I would be grateful if you could share the reported viability, T/C for Cc1nc(N2CCC3(CC2)COC(C)C3N)c(CO)nc1Sc1ccnc(N)c1Cl (stereo not given) + C#Cc1c(F)ccc2cc(O)cc(-c3ncc4c(N5CC6CCC(C5)N6)nc(OCC56CCCN5CC(F)C6)nc4c3F)c12 .
Response: 92.6

----------
# Tested on: 485176-168-R4-J1-PDC complex spheroid growth
# assayComment: Anticancer human tumor 485176-168-R4-J1-PDC cell line growth inhibition [RAS];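 also: spheroids exposed to compounds for seven days before readout; luminescence viability expressed relative to DMSO vehicle wells set as 100%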
# condition: second compound 0.0316 µM; first compound 0.03 µM; hits give low values
# Text: RAS pathway inhibitors in Combinations in Complex Spheroids A high-throughput screen of multi-cell type tumor spheroids was designed to identify active combinations of RAS pathway inhibitors and targeted small molecules. Complex spheroids include a stromal component modeled by human endothelial cells (HUVEC) and fibroblasts modeled by human mesenchymal stem cells (MSCs). […] Compounds. […] If the clinical Cmax for an agent had not been determined, the highest concentration tested was 10 microM. […]
metric: viability, T/C (%)
The answer is to be given in %; state only the numeric part.

| compound | viability, T/C (%) |
| --- | --- |
| CCc1c2c(nc3ccc(O)cc13)-c1cc3c(c(=O)n1C2)COC(=O)[C@]3(O)CC + C#Cc1c(F)ccc2cc(O)cc(-c3ncc4c(N5CC6CCC(C5)N6)nc(OCC56CCCN5CC(F)C6)nc4c3F)c12 | 36.8 |
| CCc1c2c(nc3ccc(O)cc13)-c1cc3c(c(=O)n1C2)COC(=O)[C@]3(O)CC + C=CC(=O)N1CCN(c2nc(OCC3CCCN3C)nc3c(F)c(-c4nc(N)cc(C)c4C(F)(F)F)c(Cl)cc23)C(C)C1 | 27.8 |
| CC1(C)CCC(Nc2ncc(C(F)(F)F)c(-c3c[nH]c4c(P(C)(C)=O)c(C#N)ccc34)n2)CN1 (centres undefined) + C=CC(=O)N1CCN(c2nc(OCC3CCCN3C)nc3c(F)c(-c4nc(N)cc(C)c4C(F)(F)F)c(Cl)cc23)C(C)C1 | 59.5 |

We now examine a further compound.
Query: Item CC1(C)CCC(Nc2ncc(C(F)(F)F)c(-c3c[nH]c4c(P(C)(C)=O)c(C#N)ccc34)n2)CN1 (centres undefined) + C#Cc1c(F)ccc2cc(O)cc(-c3ncc4c(N5CC6CCC(C5)N6)nc(OCC56CCCN5CC(F)C6)nc4c3F)c12 with 485176-168-R4-J1-PDC complex spheroid growth - viability, T/C?
Response: 59.8

----------
# System: 485176-168-R4-J1-PDC complex spheroid growth
# assayComment: Anticancer human tumor 485176-168-R4-J1-PDC cell line growth inhibition [RAS];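 also: spheroids exposed to compounds for seven days before readout; luminescence viability expressed relative to DMSO vehicle wells set as 100%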
# condition: second compound 0.0316 µM; first compound 10 µM; hits give low values
Hi! Could you tag entries with viability, T/C below 60% as TRUE, and those at or above as FALSE? Much appreciated.

| compound | testTarget | answerLabel |
| --- | --- | --- |
| CC(=O)OC12COC1CC(O)C1(C)C(=O)C(O)C3=C(C)C(OC(=O)C(O)C(NC(=O)OC(C)(C)C)c4ccccc4)CC(O)(C(OC(=O)c4ccccc4)C21)C3(C)C (stereo not given) + C#Cc1c(F)ccc2cc(O)cc(-c3ncc4c(N5CC6CCC(C5)N6)nc(OCC56CCCN5CC(F)C6)nc4c3F)c12 | 485176-168-R4-J1-PDC complex spheroid growth | TRUE |

Query: Hello, I'm reviewing records and need to know if viability, T/C of CCC(CC)c1cc(NC2CCC(N)C2)n2nccc2n1 (stereo not given) + C=CC(=O)N1CCN(c2nc(OCC3CCCN3C)nc3c(F)c(-c4nc(N)cc(C)c4C(F)(F)F)c(Cl)cc23)C(C)C1 is below 60%. Could you check?
Response: TRUE

Query: Hello, I'm reviewing records and need to know if viability, T/C of CC(Nc1ccc2c(c1)OCCn1cc(N3C(=O)OCC3C(F)F)nc1-2)C(N)=O (stereo not given) + C#Cc1c(F)ccc2cc(O)cc(-c3ncc4c(N5CC6CCC(C5)N6)nc(OCC56CCCN5CC(F)C6)nc4c3F)c12 is below 60%. Could you check?
Response: FALSE

Query: Hello, I'm reviewing records and need to know if viability, T/C of CC1(O)CCCC1n1c(=O)c(C(F)F)cc2cnc(NC3CCN(S(C)(=O)=O)CC3)nc21 (stereo not given) + C=CC(=O)N1CCN(c2nc(OCC3CCCN3C)nc3c(F)c(-c4nc(N)cc(C)c4C(F)(F)F)c(Cl)cc23)C(C)C1 is below 60%. Could you check?
Response: TRUE

Query: Hello, I'm reviewing records and need to know if viability, T/C of NC1c2ccccc2OC12CCN(c1cnc3c(N4CCCc5ncccc54)n[nH]c3n1)CC2 (stereo not given) + C#Cc1c(F)ccc2cc(O)cc(-c3ncc4c(N5CC6CCC(C5)N6)nc(OCC56CCCN5CC(F)C6)nc4c3F)c12 is below 60%. Could you check?
Response: FALSE
